Tested on: SW-620
protocol: NCI tumour cell line growth inhibition, 48 h
Activity calls are given as the source filed them. Rule as the data show it: active = GI50 up to about 1.1 µM and inactive = higher.
# output must be one of Y (active), N (inactive)

Example results:
[
  {
    "compound": "COc1nc(N=P(c2ccccc2)(c2ccccc2)c2ccccc2)cc(=O)[nH]1",
    "discreteLabel": "N"
  },
  {
    "compound": "CCC1(CN(C)C)CC/C(=C\\c2ccc3c(c2)OCO3)C1=O (centres undefined)",
    "discreteLabel": "N"
  },
  {
    "compound": "COC1/C=C(C)/C=C/C(C)/C=C/C(=O)OC(/C(C)=C/C=C(\\C)CNC(=O)[C@H](CO)NC=O)C(C)/C=C/C=C/C(OC)CC/C=C(C)/C=C/C1 (some centres undefined)",
    "discreteLabel": "Y"
  }
]

Inquiry: GET /call?item= COc1ccc(CNc2nc3cc(C(F)(F)F)ccc3nc2C(=O)O)cc1 returns the recorded outcome of this test.
Reply text: N

Inquiry: GET /call?item= Cc1cc2[n-][n+]3ncc(-c4ccccc4)n3c2cc1[N+](=O)[O-] returns the recorded outcome of this test.
Reply text: N

Inquiry: GET /call?item= NCCCCNCCCNC(=O)c1nc(-c2nc(CCN)sc2Cl)sc1Cl returns the recorded outcome of this test.
Reply text: N

Inquiry: GET /call?item= CCCCCCOP(=O)(OCCCCCC)C(NC(=O)OCC)(C(F)(F)F)C(F)(F)F returns the recorded outcome of this test.
Reply text: N

Inquiry: GET /call?item= COc1cc([C@@H]2c3cc4c(cc3[C@@H](Nc3ccc(Cl)cc3C(=O)c3ccccc3Cl)[C@H]3COC(=O)[C@H]23)OCO4)cc(OC)c1OC returns the recorded outcome of this test.
Reply text: Y

Inquiry: GET /call?item= CC1=CCC2CC1C(C(=O)c1c[nH]c3ccccc13)=NC2(C)C (centres undefined) returns the recorded outcome of this test.
Reply text: N

* * *

System: SK-OV-3
protocol: NCI tumour cell line growth inhibition, 48 h
Active and inactive are the calls of the source. Rule as the data show it: active = GI50 up to about 1.1 µM and inactive = higher.
endpointLabel: GI50

For orientation, consider the following solved cases.
[
  {
    "molecule": "C=C(Br)CN(CC(=C)Br)C(C)=O",
    "GI50": "> 100 µM (inactive)"
  },
  {
    "molecule": "CCOC(=O)c1nc2ccc(Cl)cc2c2c1CCO2",
    "GI50": "76 µM (inactive)"
  },
  {
    "molecule": "C[As](C)SCC(NC(=O)CCC(N)C(=O)O)C(=O)NCC(=O)O.c1ccncc1 (stereo not given)",
    "GI50": "7.31 µM (inactive)"
  },
  {
    "molecule": "CC1=C(C(=O)Nc2cccc(C(F)(F)F)c2)C(c2ccc(O)cc2)C(C(=O)Nc2cccc(C(F)(F)F)c2)=C(C)N1",
    "GI50": "19.1 µM (inactive)"
  }
]

From here, focus on the item given below.
Inquiry: So what does the record say about GI50 for CC1C2CC(C(C3C(=O)C4CC3C(C)(C)C4C)C2=O)C1(C)C (stereo not given) ?
Reply text: > 100 µM (inactive)

* * *

Tested on: NCI-H23
protocol: NCI tumour cell line growth inhibition, 48 h
Active and inactive are the calls of the source. No stated cut-off is given here; in the data, active = GI50 up to about 1.1 µM and inactive = higher.
Below, each entry is listed alongside its reported GI50.

For orientation, consider the following solved cases.
[
  {
    "compound": "Cc1ccc2c(c1C)C(=O)/C(=C/c1ccccc1C(=O)O)C2",
    "experimentalSystem": "NCI-H23",
    "GI50": "> 100 µM (inactive)"
  },
  {
    "compound": "Cc1c(/N=N/c2ccc(Cl)cc2)c(C)n(C2OC(CO)C(O)C(O)C2O)c(=S)c1C#N (centres undefined)",
    "experimentalSystem": "NCI-H23",
    "GI50": "30 µM (inactive)"
  },
  {
    "compound": "CC(=O)O[C@]12CCCCC1C1(O)C(O)CCCC[C@H]12 (some centres undefined)",
    "experimentalSystem": "NCI-H23",
    "GI50": "> 100 µM (inactive)"
  },
  {
    "compound": "O=C(CCCCCCCCC(=O)N1C(=O)CC(=O)N(c2ccc(Cl)cc2)C1=S)N1C(=O)CC(=O)N(c2ccc(Cl)cc2)C1=S",
    "experimentalSystem": "NCI-H23",
    "GI50": "58.5 µM (inactive)"
  },
  {
    "compound": "Cn1ncc2c(Nc3cccc(Cl)c3)nc(Nc3cccc(Cl)c3)nc21",
    "experimentalSystem": "NCI-H23",
    "GI50": "16.3 µM (inactive)"
  },
  {
    "compound": "COc1ccc(NC2Oc3cc4c(cc3C(c3cc(OC)c(O)c(OC)c3)C2C)OCO4)cc1 (centres undefined)",
    "experimentalSystem": "NCI-H23",
    "GI50": "11.2 µM (inactive)"
  },
  {
    "compound": "O=C(/C=C/c1ccccc1)Oc1cccc(O)c1",
    "experimentalSystem": "NCI-H23",
    "GI50": "63.8 µM (inactive)"
  },
  {
    "compound": "COc1cc(O)c2c(c1)C(=O)C1=C(C2=O)C(O)C[C@@](C)(O)C1 (some centres undefined)",
    "experimentalSystem": "NCI-H23",
    "GI50": "1.53 µM (inactive)"
  }
]

Inquiry: For the record CSCCC(NC(=O)OCc1ccccc1)NC(=O)OCc1ccccc1 , what value of GI50 is listed for NCI-H23?
Reply text: > 100 µM (inactive)

Inquiry: For the record CCOC(=O)C(Cl)(NC(=O)c1c(F)c(F)c(F)c(F)c1F)C(F)(F)F (centres undefined) , what value of GI50 is listed for NCI-H23?
Reply text: > 100 µM (inactive)

Inquiry: For the record CC(ON1[C@](C)(c2ccccc2)CC[C@@]1(C)c1ccccc1)c1ccccc1 (some centres undefined) , what value of GI50 is listed for NCI-H23?
Reply text: 40 µM (inactive)

* * *

Tested on: A498
protocol: NCI tumour cell line growth inhibition, 48 h
The source made the active and inactive calls. Cut-off read from the data, not from the text of the source: active = GI50 up to about 1.1 µM and inactive = higher.
# output must be one of true for active, false for inactive

Example results:
[
  {
    "compound": "CC(C)[Si]1(C(C)C)OCC2OC(n3c(C(=O)c4ccccc4)cc(=O)[nH]c3=O)CC2O[Si](C(C)C)(C(C)C)O1 (stereo unspecified)",
    "discreteLabel": "false"
  },
  {
    "compound": "COc1ccc2cc(CN3CCC(C4CCN(Cc5ccc6cc(OC)ccc6c5)CC4)CC3)ccc2c1",
    "discreteLabel": "false"
  }
]

Inquiry: GET /call?item= N#CC(C#N)=C1C(C#N)=C(N)NC12OCCO2 returns the recorded outcome of this test.
Reply text: false

Inquiry: GET /call?item= C=C1c2nc3ccccc3n2C=C(c2ccc(Cl)cc2)N1c1ccc(OC)cc1 returns the recorded outcome of this test.
Reply text: false

Inquiry: GET /call?item= CCC(C)C1NC(=O)C(NC(=O)C(CC(C)C)N(C)C(=O)[C@@H]2CC(O)CN2C(=O)[C@H](C)O)C(C)OC(=O)[C@H](Cc2ccc(OC)cc2)N(C)C(=O)[C@@H]2CCCN2C(=O)[C@H](CC(C)C)NC(=O)C(C)C(=O)[C@H](C(C)C)OC(=O)CC1O (stereo partly specified) returns the recorded outcome of this test.
Reply text: true

Inquiry: GET /call?item= CCCn1cnc2c(SCC(=O)O)nc(N)nc21 returns the recorded outcome of this test.
Reply text: false

Inquiry: GET /call?item= CC1=N/C(=C/c2ccc3c(c2)OCO3)C(=O)O1 returns the recorded outcome of this test.
Reply text: false

* * *

System: CAKI-1
protocol: NCI tumour cell line growth inhibition, 48 h
Activity calls are given as the source filed them. No stated cut-off is given here; in the data, active = GI50 up to about 1.1 µM and inactive = higher.
Below, each entry is listed alongside its reported GI50.

Inquiry: For the record CCN(CC)CCCNc1[nH]c2ccccc2c2nc3ccc(OC)cc3c1-2 , what value of GI50 is listed for CAKI-1?
Reply text: 2.71 µM (inactive)

Inquiry: For the record N#CC12C(=O)N3C(=NC(c4ccccc4)NC3c3ccccc3)C1(C#N)C(c1ccccc1)NC1=C2CCC1 (stereo not given) , what value of GI50 is listed for CAKI-1?
Reply text: > 100 µM (inactive)

Inquiry: For the record CCOc1ccc2c(c1)[n+]([O-])c(-c1nc3ccccc3s1)c(N)[n+]2[O-] , what value of GI50 is listed for CAKI-1?
Reply text: 83.4 µM (inactive)

Inquiry: For the record O=C(c1ccc(Cl)cc1)N(C(=S)N1CCN(c2ccccn2)CC1)C1CCCCC1 , what value of GI50 is listed for CAKI-1?
Reply text: > 100 µM (inactive)

Inquiry: For the record CC1(C)N=C(N)N=C(N)N1c1ccc(CCCCc2ccc(S(=O)(=O)F)cc2Cl)c(Cl)c1 , what value of GI50 is listed for CAKI-1?
Reply text: 9.55 µM (inactive)

* * *

Test system: A549
protocol: NCI tumour cell line growth inhibition, 48 h
The source made the active and inactive calls. Cut-off read from the data, not from the text of the source: active = GI50 up to about 1.1 µM and inactive = higher.
endpointLabel: GI50

[
  {
    "compound": "CCCN(CCC)C(=S)N/N=C(/C)c1ccccc1O",
    "GI50": "5.64 µM (inactive)"
  }
]

Inquiry: So what does the record say about GI50 for O=P(c1ccccc1)(c1ccccc1)C(NCc1ccccc1)c1ccc(F)cc1 (stereo unspecified) ?
Reply text: 15 µM (inactive)

Inquiry: So what does the record say about GI50 for COC(=O)C(/C(=N/N)C(=O)Nc1cc(Cl)ccc1Cl)c1nc2ccc([N+](=O)[O-])cc2nc1O (stereo unspecified) ?
Reply text: > 100 µM (inactive)

Inquiry: So what does the record say about GI50 for O=C(CCCl)NN=C1NCCCN1 ?
Reply text: > 100 µM (inactive)

Inquiry: So what does the record say about GI50 for CC(=O)NC(CCCNC(=O)N(C)N=O)C(=O)NCc1ccccc1 (stereo unspecified) ?
Reply text: > 100 µM (inactive)

Inquiry: So what does the record say about GI50 for OC1CN=C2c3ccccc3C(O)(c3ccc(Cl)cc3)N2C1 (stereo unspecified) ?
Reply text: > 100 µM (inactive)

Inquiry: So what does the record say about GI50 for COc1ccc2c(c1)N=C(N)n1c(nc3ccccc31)S2 ?
Reply text: 30 µM (inactive)

Inquiry: So what does the record say about GI50 for COc1ccc(-c2oc3cc(-c4cc5oc(-c6ccc(OC)cc6)c(-c6ccc(OC)cc6)c5cc4OC)c(OC)cc3c2-c2ccc(OC)cc2)cc1 ?
Reply text: > 100 µM (inactive)

Inquiry: So what does the record say about GI50 for COc1ccc(NC2Oc3cc4c(cc3C(c3cc(OC)c(O)c(OC)c3)C2C)OCO4)cc1 (stereo unspecified) ?
Reply text: 3.56 µM (inactive)

Values from ChEMBL document CHEMBL1201862
